# Test system: HT-29 (Colorectal Carcinoma)
# runDescription: Bliss excess, mean over the matrix (fraction); higher = more synergy
Reported Bliss excess is given for each of the following molecules.
propertyMeasured: Bliss excess

[[record]]
molecule = "Cc1cc2ncnn2cc1Nc1ncc2c(n1)n(C1CCOCC1)c(=O)n2C [AZD7648] + C=CCn1c(=O)c2cnc(Nc3ccc(N4CCN(C)CC4)cc3)nc2n1-c1cccc(C(C)(C)O)n1 [AZD1775] (first compound max 10 µM, partner max 1 µM)"
recordednumber = -0.0091

[[record]]
molecule = "CC1(C)CCC(CN2CCN(c3ccc(C(=O)NS(=O)(=O)c4ccc(NCC5CCOCC5)c([N+](=O)[O-])c4)c(Oc4cnc5[nH]ccc5c4)c3)CC2)=C(c2ccc(Cl)cc2)C1 [Venetoclax] + C[C@@H](Nc1cc(F)cc(F)c1)c1cc(C(=O)N(C)C)cc2c(=O)cc(N3CCOCC3)oc12 [AZD8186] (first compound max 1 µM, 7x7, partner max 3 µM)"
recordednumber = -0.0255

[[record]]
molecule = "NC1(C(=O)N[C@@H](CCO)c2ccc(Cl)cc2)CCN(c2ncnc3[nH]ccc23)CC1 [Capivasertib] + CC(C)n1c(=O)n(C)c2cnc3cc(F)c(-c4ccc(OCCCN5CCCCC5)nc4)cc3c21 [AZD1390] (first compound max 10 µM, 7x7, partner max 0.3 µM)"
recordednumber = -0.0376

[[record]]
molecule = "COc1nnc2ccc(N3CCC(c4ccc(OCCN5CCN(C)C(=O)[C@H]5C)cc4)CC3)nn12 [AZD5153] + CC1(C)CCC(CN2CCN(c3ccc(C(=O)NS(=O)(=O)c4ccc(NCC5CCOCC5)c([N+](=O)[O-])c4)c(Oc4cnc5[nH]ccc5c4)c3)CC2)=C(c2ccc(Cl)cc2)C1 [Venetoclax] (first compound max 1 µM, 7x7, partner max 1 µM)"
recordednumber = -0.0288

[[record]]
molecule = "COc1cccc(OCCCN)c1-c1cc(Nc2cnc(C#N)cn2)n[nH]1 [Prexasertib] + C[C@@H]1COCCN1C2=NC(=NC(=C2)C3(CC3)[S@](=N)(=O)C)C4=C5C=CNC5=NC=C4 [AZD6738] (first compound max 1 µM, 7x7, partner max 10 µM)"
recordednumber = -0.0361

[[record]]
molecule = "COc1nnc2ccc(N3CCC(c4ccc(OCCN5CCN(C)C(=O)[C@H]5C)cc4)CC3)nn12 [AZD5153] + C=CCn1c(=O)c2cnc(Nc3ccc(N4CCN(C)CC4)cc3)nc2n1-c1cccc(C(C)(C)O)n1 [AZD1775] (first compound max 1 µM, partner max 1 µM)"
recordednumber = -0.0532

[[record]]
molecule = "CN(CCO)CC[C@H](CSc1ccccc1)Nc1ccc(S(=O)(=O)NC(=O)c2ccc(N3CCC([C@@H](O)c4ccccc4-c4ccc(Cl)cc4)CC3)cc2)cc1S(=O)(=O)C(F)(F)F [AZD4320] + Nc1ccn([C@@H]2O[C@H](CO)[C@@H](O)C2(F)F)c(=O)n1 [Gemcitabine] (first compound max 1 µM, 7x7, partner max 0.3 µM)"
recordednumber = 0.0191


###

# Tested on: KM-H2 (Hodgkin's Lymphoma)
# runDescription: combination Emax (second highest fraction inhibited in the dose matrix, 72 h); higher = more inhibition; extreme values may be limits of the assay
Reported combination Emax is given for each of the following compounds.
propertyMeasured: combination Emax

[[record]]
compound = "CCN(CCO)CCCOc1ccc2c(Nc3cc(CC(=O)Nc4cccc(F)c4)[nH]n3)ncnc2c1 [AZD2811] + C=CCn1c(=O)c2cnc(Nc3ccc(N4CCN(C)CC4)cc3)nc2n1-c1cccc(C(C)(C)O)n1 [AZD1775] (first compound max 1 µM, partner max 1 µM)"
recordednumber = 0.938

[[record]]
compound = "C=CCn1c(=O)c2cnc(Nc3ccc(N4CCN(C)CC4)cc3)nc2n1-c1cccc(C(C)(C)O)n1 [AZD1775] + C1CN(CCC1(C(=O)N[C@@H](CCO)C2=CC=C(C=C2)Cl)N)C3=NC=NC4=C3C=CN4 [Capivasertib] (first compound max 3 µM, partner max 3 µM)"
recordednumber = 0.949

[[record]]
compound = "Cc1cc2ncnn2cc1Nc1ncc2c(n1)n(C1CCOCC1)c(=O)n2C [AZD7648] + C[C@@H]1COCCN1C2=NC(=NC(=C2)C3(CC3)[S@](=N)(=O)C)C4=C5C=CNC5=NC=C4 [AZD6738] (first compound max 10 µM, 7x7, partner max 10 µM)"
recordednumber = 0.774

[[record]]
compound = "COc1cccc(OCCCN)c1-c1cc(Nc2cnc(C#N)cn2)n[nH]1 [Prexasertib] + C=CCn1c(=O)c2cnc(Nc3ccc(N4CCN(C)CC4)cc3)nc2n1-c1cccc(C(C)(C)O)n1 [AZD1775] (first compound max 1 µM, partner max 1 µM)"
recordednumber = 0.962

[[record]]
compound = "Cc1cc2ncnn2cc1Nc1ncc2c(n1)n(C1CCOCC1)c(=O)n2C [AZD7648] + CCN(CCO)CCCOc1ccc2c(Nc3cc(CC(=O)Nc4cccc(F)c4)[nH]n3)ncnc2c1 [AZD2811] (first compound max 10 µM, 7x7, partner max 1 µM)"
recordednumber = 0.209

[[record]]
compound = "COc1nnc2ccc(N3CCC(c4ccc(OCCN5CCN(C)C(=O)[C@H]5C)cc4)CC3)nn12 [AZD5153] + C=CCn1c(=O)c2cnc(Nc3ccc(N4CCN(C)CC4)cc3)nc2n1-c1cccc(C(C)(C)O)n1 [AZD1775] (first compound max 1 µM, partner max 1 µM)"
recordednumber = 0.943

[[record]]
compound = "C[C@@H](c1ccc2nccn2c1)n1nnc2ncc(-c3cnn(C)c3)nc21 [Savolitinib] + Cc1c2c(nn1C)CSCc1cc(n(C)n1)CSc1cc(c3ccccc3c1)OCCCc1c(C(=O)O)n(C)c3c-2c(Cl)ccc13 [AZD5991] (first compound max 1 µM, 7x7, partner max 1 µM)"
recordednumber = 0.11

[[record]]
compound = "NC1(C(=O)N[C@@H](CCO)c2ccc(Cl)cc2)CCN(c2ncnc3[nH]ccc23)CC1 [Capivasertib] + COc1nnc2ccc(N3CCC(c4ccc(OCCN5CCN(C)C(=O)[C@H]5C)cc4)CC3)nn12 [AZD5153] (first compound max 10 µM, 7x7, partner max 1 µM)"
recordednumber = 0.546

[[record]]
compound = "Cn1cnc2c(F)c(Nc3ccc(Br)cc3Cl)c(C(=O)NOCCO)cc21 [Selumetinib] + C=CCn1c(=O)c2cnc(Nc3ccc(N4CCN(C)CC4)cc3)nc2n1-c1cccc(C(C)(C)O)n1 [AZD1775] (first compound max 10 µM, partner max 1 µM)"
recordednumber = 0.926

[[record]]
compound = "COc1cccc(OCCCN)c1-c1cc(Nc2cnc(C#N)cn2)n[nH]1 [Prexasertib] + CCc1c2c(nc3ccc(O)cc13)-c1cc3c(c(=O)n1C2)COC(=O)[C@]3(O)CC [SN-38] (first compound max 1 µM, 7x7, partner max 0.3 µM)"
recordednumber = 0.944

[[record]]
compound = "Cc1cc2ncnn2cc1Nc1ncc2c(n1)n(C1CCOCC1)c(=O)n2C [AZD7648] + O=C(c1cc(Cc2n[nH]c(=O)c3ccccc23)ccc1F)N1CCN(C(=O)C2CC2)CC1 [Olaparib] (first compound max 10 µM, 7x7, partner max 10 µM)"
recordednumber = 0.349

[[record]]
compound = "CS(=O)(=O)CCNCc1ccc(-c2ccc3ncnc(Nc4ccc(OCc5cccc(F)c5)c(Cl)c4)c3c2)o1 [Lapatinib] + NC1(c2ccc(-c3nc4ccn5c(=O)[nH]nc5c4cc3-c3ccccc3)cc2)CCC1 [MK-2206] (first compound max 10 µM, 7x7, partner max 10 µM)"
recordednumber = 0.939

[[record]]
compound = "C=CCn1c(=O)c2cnc(Nc3ccc(N4CCN(C)CC4)cc3)nc2n1-c1cccc(C(C)(C)O)n1 [AZD1775] + C[C@@H]1COCCN1C2=NC(=NC(=C2)C3(CC3)[S@](=N)(=O)C)C4=C5C=CNC5=NC=C4 [AZD6738] (first compound max 1 µM, partner max 10 µM)"
recordednumber = 0.961

[[record]]
compound = "CC1(C)CCC(CN2CCN(c3ccc(C(=O)NS(=O)(=O)c4ccc(NCC5CCOCC5)c([N+](=O)[O-])c4)c(Oc4cnc5[nH]ccc5c4)c3)CC2)=C(c2ccc(Cl)cc2)C1 [Venetoclax] + CN(C)CCCOc1ccc(-c2ccc3ncc4c(c3c2)n(C2CCOCC2)c(=O)n4C)cn1 [AZD0156] (first compound max 1 µM, 7x7, partner max 1 µM)"
recordednumber = 0.206


###

# System: TGBC24TKB (Biliary Tract Carcinoma)
# runDescription: Bliss excess, mean over the matrix (fraction); higher = more synergy
propertyMeasured: Bliss excess

[[record]]
compound = "CC(=O)Nc1cccc(-n2c(=O)n(C3CC3)c(=O)c3c(Nc4ccc(I)cc4F)n(C)c(=O)c(C)c32)c1 [Trametinib] + Cc1nc(-c2cn3c(n2)-c2ccc(-c4cnn(C(C)(C)C(N)=O)c4)cc2OCC3)n(C(C)C)n1 [Taselisib] (first compound max 1 µM, 7x7, partner max 10 µM)"
recordednumber = 0.196

[[record]]
compound = "CCN(CCO)CCCOc1ccc2c(Nc3cc(CC(=O)Nc4cccc(F)c4)[nH]n3)ncnc2c1 [AZD2811] + C=CCn1c(=O)c2cnc(Nc3ccc(N4CCN(C)CC4)cc3)nc2n1-c1cccc(C(C)(C)O)n1 [AZD1775] (first compound max 1 µM, partner max 1 µM)"
recordednumber = -0.0717

